Where these numbers come from: patent US20240270821A1

Kindly state EC50 for each of the entries shown.
target: hGIPR (Homo sapiens); experiment: Functional cAMP activity in the presence of 1% HSA; type: cell-based; details: read-out: cAMP Rel EC50, hGIPR
Sequence (P48546 22-466): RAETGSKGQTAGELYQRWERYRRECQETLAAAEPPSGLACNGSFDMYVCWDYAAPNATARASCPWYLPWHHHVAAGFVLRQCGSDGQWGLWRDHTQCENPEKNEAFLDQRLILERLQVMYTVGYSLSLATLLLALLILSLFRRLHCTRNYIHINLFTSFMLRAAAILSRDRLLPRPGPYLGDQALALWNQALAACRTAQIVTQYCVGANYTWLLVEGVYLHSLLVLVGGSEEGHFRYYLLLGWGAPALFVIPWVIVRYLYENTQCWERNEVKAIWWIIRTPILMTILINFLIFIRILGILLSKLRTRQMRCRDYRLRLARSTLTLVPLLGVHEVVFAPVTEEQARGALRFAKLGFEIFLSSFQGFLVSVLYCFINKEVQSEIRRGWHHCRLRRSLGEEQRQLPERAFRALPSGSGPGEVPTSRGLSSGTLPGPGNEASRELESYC
Starred links: 1 amine or outer side, 2 acyl side, 3 side chain; linkers in the order of their positions; H or OH if unused. Non-standard residues stand in square brackets, D forms with d. Groups on a side chain read outwards from the residue. No end group written: not given here. *: point of attachment. C18 diacid = O=C(O)CCCCCCCCCCCCCCCCC(=O)*; αMePhe(2-F) = C[C@](N)(Cc1ccccc1F)C(=O)O; γGlu = O=C(O)[C@H](CCC(=O)[*:2])N[*:1]; αMe4Pal = C[C@](N)(Cc1ccncc1)C(=O)O; αMeY = C[C@](N)(Cc1ccc(O)cc1)C(=O)O; 4Pal = N[C@@H](Cc1ccncc1)C(=O)O; αMeL = CC(C)C[C@](C)(N)C(=O)O; αMeS = C[C@](N)(CO)C(=O)O; Orn = NCCC[C@H](N)C(=O)O; AEEA = NCCOCCOCC(=O)O; Aib = CC(C)(N)C(=O)O

H-Y[Aib]QGTFTSD[4Pal]S[Orn][αMeL]LDKK([γGlu-γGlu-C18 diacid])AQ[αMe4Pal]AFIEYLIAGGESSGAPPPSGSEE-NH2 [Example 964]    21.4 nM

// each listed substance needs a value for EC50
1. H-Y[Aib]QGT[αMePhe(2-F)]TSD[4Pal][αMeS]I[αMeL]LD[Orn]K([γGlu-γGlu-C18 diacid])AQ[αMe4Pal]EFI[dE][αMeY]LIEGGPSSGEPPPSGGGE-NH2 [Example 744]
2. Y[Aib]QGTFTSD[4Pal]S[Orn][αMeL]LD[Orn]K([γGlu-γGlu-C18 diacid])AQ[αMe4Pal]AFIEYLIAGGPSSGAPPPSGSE-NH2 [Example 1011]
3. H-Y[Aib]QGT[αMePhe(2-F)]TSD[4Pal]SI[αMeL]LD[Orn]K([AEEA-γGlu-C18 diacid])AQ[αMe4Pal][Orn]FI[dE][αMeY]LIEGGPSSGDPPPETE-NH2 [Example 730]

1: 0.488 nM; 2: 13.5 nM; 3: 1.29 nM
